system: 874868-142-R-J2-PDC complex spheroids, growth % test/control; test: Anticancer human tumor 874868-142-R-J2-PDC patient-derived head and neck squamous carcinoma cell line growth inhibition [CLK]; details: second compound 0.1 µM; first compound 0.316 µM; stronger effect = lower value;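 further: spheroids exposed to the compounds for 7 days; 100% = DMSO vehicle control viability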
MEASURED_QUANTITY: viability, T/C (%)
Provide the reading as a plain figure in %.

Some solved entries appear below for comparison.
compound="O=c1[nH]cc(F)c(=O)[nH]1 + CNC(=O)c1ccc(Nc2nc(OC3CCCC3)c3c(-c4ccc5nc(C)oc5c4)c[nH]c3n2)c(OC)c1" target_under_test="874868-142-R-J2-PDC complex spheroids, growth % test/control" measured_result=75.8
compound="C=CC(=O)N1CCN(c2nc(=O)n(-c3c(C)ccnc3C(C)C)c3nc(-c4c(O)cccc4F)c(F)cc23)C(C)C1 (stereo not given) + CNC(=O)c1ccc(Nc2nc(OC3CCCC3)c3c(-c4ccc5nc(C)oc5c4)c[nH]c3n2)c(OC)c1" target_under_test="874868-142-R-J2-PDC complex spheroids, growth % test/control" measured_result=90.3
compound="CC(=O)O[C@H]1C(=O)[C@@]2(C)[C@H]([C@H](OC(=O)c3ccccc3)[C@]3(O)C[C@H](OC(=O)[C@H](O)[C@@H](NC(=O)c4ccccc4)c4ccccc4)C(C)=C1C3(C)C)[C@]1(OC(C)=O)CO[C@@H]1C[C@@H]2O + CNC(=O)c1ccc(Nc2nc(OC3CCCC3)c3c(-c4ccc5nc(C)oc5c4)c[nH]c3n2)c(OC)c1" target_under_test="874868-142-R-J2-PDC complex spheroids, growth % test/control" measured_result=50
compound="COc1ccc([C@@H](O)c2cc(-c3ncnc4cc(N5CCOCC5)ccc34)c(F)cc2Cl)nn1 + CN1CCN(c2cc(C(=O)Nc3cc4cc(-c5cnn(C)c5)ccc4cn3)ccn2)CC1" target_under_test="874868-142-R-J2-PDC complex spheroids, growth % test/control" measured_result=64.5
compound="O=c1[nH]cc(F)c(=O)[nH]1 + CN1CCN(c2cc(C(=O)Nc3cc4cc(-c5cnn(C)c5)ccc4cn3)ccn2)CC1" target_under_test="874868-142-R-J2-PDC complex spheroids, growth % test/control" measured_result=62.4

## Input Could you share which viability, T/C value was measured for COc1ccc([C@@H](O)c2cc(-c3ncnc4cc(N5CCOCC5)ccc34)c(F)cc2Cl)nn1 + CNC(=O)c1ccc(Nc2nc(OC3CCCC3)c3c(-c4ccc5nc(C)oc5c4)c[nH]c3n2)c(OC)c1 ?
## Output 73.7

## Input Name the recorded viability, T/C for COC1C=CCC(C)C(C)S(=O)(=O)NC(=O)c2ccc3c(c2)N(CC2CCC21)CC1(CCCc2cc(Cl)ccc21)CO3 (stereo not given) + CN1CCN(c2cc(C(=O)Nc3cc4cc(-c5cnn(C)c5)ccc4cn3)ccn2)CC1 .
## Output 65.2

## Input For CCc1c2c(nc3ccc(O)cc13)-c1cc3c(c(=O)n1C2)COC(=O)[C@]3(O)CC + CNC(=O)c1ccc(Nc2nc(OC3CCCC3)c3c(-c4ccc5nc(C)oc5c4)c[nH]c3n2)c(OC)c1 , what is its reported viability, T/C?
## Output 16.6

## Input Record request: viability, T/C value, item CC1COCCN1c1cc(C2(S(C)(=N)=O)CC2)nc(-c2ccnc3[nH]ccc23)n1 (stereo not given) + CN1CCN(c2cc(C(=O)Nc3cc4cc(-c5cnn(C)c5)ccc4cn3)ccn2)CC1
## Output 59.3

## Input Consider the compound shown here: COC1C=CCC(C)C(C)S(=O)(=O)NC(=O)c2ccc3c(c2)N(CC2CCC21)CC1(CCCc2cc(Cl)ccc21)CO3 (stereo not given) + CNC(=O)c1ccc(Nc2nc(OC3CCCC3)c3c(-c4ccc5nc(C)oc5c4)c[nH]c3n2)c(OC)c1 What is its recorded viability, T/C?
## Output 57.1
